Target: Human Fc (human)
Test: ELISA; negative control
optical density values, listed per item
Give the number; OD is assumed, so skip it.

Known optical density results, listed for orientation:
- binder: "371_F03 (antibody, V domains shown) VH: EVQLLESGGGLVQPGGSLRLSCAASGFTFSSYSMNWVRQAPGKGLEWVSGINYNGGYTSYADSVKGRFTISRDNSKNTLYLQMNSLRAEDTAVYYCARGATWHDTHLDYWGQGTLVTVSS VL: DIQMTQSPSSLSASVGDRVTITCRASQSIITYLNWYQQKPGKAPKLLIYAATSLHSGVPSRFSGSGSGTDFTLTISSLQPEDFATYYCQQSYDNPLTFGGGTKVEIK"
  readoutUnits: "OD"
  optical density: 0.252
- binder: "374_H05 (antibody, V domains shown) VH: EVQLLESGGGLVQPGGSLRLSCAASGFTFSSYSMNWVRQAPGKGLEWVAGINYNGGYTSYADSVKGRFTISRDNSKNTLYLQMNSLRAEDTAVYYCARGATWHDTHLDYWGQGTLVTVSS VL: DIQMTQSPSSLSASVGDRVTITCRASQSILSYVNWYQQKPGKAPKLVIYAATSRASGVPSRFSGSGSGTDFTLTISSLQPEDFATYYCQQSYDNPLTFGGGTKVEIK"
  readoutUnits: "OD"
  optical density: 0.257
- binder: "365_H03 (antibody, V domains shown) VH: EVQLLESGGGLVQPGGSLRLSCAASGFTFDDYGMNWVRQAPGKGLEWVAGINYNGGYKSYADSVKGRFTISRDNSKNTLYLQMNSLRAEDTAVYYCARSANWHDTALDYWGQGTLVTVSS VL: DIQMTQSPSSLSASVGDRVTITCRASQSILSYVNWYQQKPGKAPKLVIYAATSLHSGVPSRFSGSGSGTDFTLTISSLQPEDFATYYCQQSYNNPLTFGGGTKVEIK"
  readoutUnits: "OD"
  optical density: 0.366
- binder: "366_F05 (antibody, V domains shown) VH: EVQLLESGGGLVQPGGSLRLSCAASGFTFSSYSMNWVRQAPGKGLEWVANINYNSGYKSYADSVKGRFTISRDNSKNTLYLQMNSLRAEDTAVYYCARSANWHDTHLDYWGQGTLVTVSS VL: DIQMTQSPSSLSASVGDRVTITCRASQSILTYLNWYQQKPGKAPKLLIYAATSRASGVPSRFSGSGSGTDFTLTISSLQPEDFATYYCQQSDNTPLTFGGGTKVEIK"
  readoutUnits: "OD"
  optical density: 0.279
- binder: "375_A03 (antibody, V domains shown) VH: EVQLLESGGGLVQPGGSLRLSCAASGFTFDSYSMNWVRQAPGKGLEWVAGINYNGGYTSYADSVKGRFTISRDNSKNTLYLQMNSLRAEDTAVYYCARGATWHDTHLDYWGQGTLVTVSS VL: DIQMTQSPSSLSASVGDRVTITCRASQSILTYLNWYQQKPGKAPKLLIYAATSRHSGVPSRFSGSGSGTDFTLTISSLQPEDFATYYCQQSYDNPLTFGGGTKVEIK"
  readoutUnits: "OD"
  optical density: 0.203

Quick one: optical density of 369_H02 (antibody, V domains shown) VH: EVQLLESGGGLVQPGGSLRLSCAASGFTFDDYSMNWVRQAPGKGLEWVSNINYNGGYKSYADSVKGRFTISRDNSKNTLYLQMNSLRAEDTAVYYCARGATWHDTHLDYWGQGTLVTVSS VL: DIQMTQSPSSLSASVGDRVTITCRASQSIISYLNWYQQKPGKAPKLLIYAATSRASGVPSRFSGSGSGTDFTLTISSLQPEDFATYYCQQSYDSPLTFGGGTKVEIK ?
0.408

Next: 367_A05 (antibody, V domains shown) VH: EVQLLESGGGLVQPGGSLRLSCAASGFTFSDYGMNWVRQAPGKGLEWVSSINYNGGYKGYADSVKGRFTISRDNSKNTLYLQMNSLRAEDTAVYYCARSANWHDTALDYWGQGTLVTVSS VL: DIQMTQSPSSLSASVGDRVTITCRASQSILSYLNWYQQKPGKAPKLVIYAVTSRASGVPSRFSGSGSGTDFTLTISSLQPEDFATYYCQQSYDSPLTFGGGTKVEIK
0.269

Next: 365_A08 (antibody, V domains shown) VH: EVQLLESGGGLVQPGGSLRLSCAASGFTFSSYSMNWVRQAPGKGLEWVASINYNGGYKSYADSVKGRFTISRDNSKNTLYLQMNSLRAEDTAVYYCARGATWHDTHLDYWGQGTLVTVSS VL: DIQMTQSPSSLSASVGDRVTITCRASQSIITYLNWYQQKPGKAPKLVIYAATSRASGVPSRFSGSGSGTDFTLTISSLQPEDFATYYCQQSDNTPLTFGGGTKVEIK
0.256

Next: 365_B07 (antibody, V domains shown) VH: EVQLLESGGGLVQPGGSLRLSCAASGFTFSSYGMHWVRQAPGKGLEWVASINYNSGYTSYADSVKGRFTISRDNSKNTLYLQMNSLRAEDTAVYYCARSANWHDTALDYWGQGTLVTVSS VL: DIQMTQSPSSLSASVGDRVTITCRASQSILTYLNWYQQKPGKAPKLLIYAATSRASGVPSRFSGSGSGTDFTLTISSLQPEDFATYYCQQSYENPLTFGGGTKVEIK
0.269

Next: 371_C07 (antibody, V domains shown) VH: EVQLLESGGGLVQPGGSLRLSCAASGFTFDSYGMNWVRQAPGKGLEWVSNINYNGGYTGYADSVKGRFTISRDNSKNTLYLQMNSLRAEDTAVYYCARGATWHDTALDYWGQGTLVTVSS VL: DIQMTQSPSSLSASVGDRVTITCRASQSILSYLNWYQQKPGKAPKLLIYAATSLASGVPSRFSGSGSGTDFTLTISSLQPEDFATYYCQQSYDTPLTFGGGTKVEIK
0.287

Where these numbers come from: patent US20210380703A1
